- Tested on: UO-31
- method-notes: NCI tumour cell line growth inhibition, 48 h
Activity calls are given as the source filed them. No stated cut-off is given here; in the data, active = GI50 up to about 1.1 µM and inactive = higher.
GI50 listing for selected compounds.

Example results:
compound=COc1ccccc1/C=C(\NC(=O)c1ccccc1)c1nc2ccccc2[nH]1 measurement_target=UO-31 test_value="63.8 µM (inactive)"
compound=NC(=O)C1CCN(Cc2c(Cl)c(Cl)c(CN3CCC(C(N)=O)CC3)c(Cl)c2Cl)CC1 measurement_target=UO-31 test_value="63.5 µM (inactive)"

IN: Look up GI50: "CC(C)OC(=O)NNc1cccc(Cl)c1"
OUT: > 100 µM (inactive)

IN: Same lookup for CN1C(=O)CN2C(Cl)(Cl)C2(c2ccccc2)c2cc(Cl)ccc21 (stereo not drawn) , please.
OUT: > 100 µM (inactive)

====

- System: HCT-116
- method-notes: NCI tumour cell line growth inhibition, 48 h
The source made the active and inactive calls. Rule as the data show it: active = GI50 up to about 1.1 µM and inactive = higher.
Use one of these outcomes when replying: 1 (yes) = active, 0 (no) = inactive

Look over these answered cases.
molecule=O=C1c2cccc3cc([N+](=O)[O-])cc(c23)C(=O)N1CCNCCNCCNCCN1C(=O)c2cccc3cc([N+](=O)[O-])cc(c23)C1=O measurement_target=HCT-116 assigned_category="1 (yes)"
molecule=CN(C)c1cccc(F)c1C(=O)NC(=O)Nc1ccc(Cl)cc1 measurement_target=HCT-116 assigned_category="0 (no)"
molecule=Cc1ccccc1Nc1cn(COCc2ccccc2)c(=O)[nH]c1=O measurement_target=HCT-116 assigned_category="0 (no)"
molecule=C=CCN1/C(=C2\SC(=S)N(c3ccc(C)cc3)C2=O)Sc2c1ncn(C)c2=O measurement_target=HCT-116 assigned_category="0 (no)"
molecule="COC(=O)c1cc(C)ccc1CC(Cc1cccc(C)c1)C(=O)OC (stereo not given)" measurement_target=HCT-116 assigned_category="0 (no)"
molecule="c1ccc(C[N+]23C(CC[C@H]2c2ccccc2)CC[C@H]3c2ccccc2)cc1 (stereo not given in full)" measurement_target=HCT-116 assigned_category="0 (no)"

Now for another entry.
IN: GET /call?item= "O=C1Nc2nccnc2C(=O)N2CCC[C@@H]12" returns the recorded outcome of this test.
OUT: 0 (no)

====

- System: SF-295
- method-notes: NCI tumour cell line growth inhibition, 48 h
The source made the active and inactive calls. Cut-off read from the data, not from the text of the source: active = GI50 up to about 1.1 µM and inactive = higher.
Use one of these outcomes when replying: Yes (active), No (inactive)

compound="c1cncc(C2N3CCCCC3[C@@H]3c4[nH]c5ccccc5c4CCN23)c1 (stereo not given in full)" assigned_category=No

IN: GET /call?item= "Cc1ccc(C)c(NC(=O)C(=O)Nn2c(S)nc3ccccc3c2=O)c1" returns the recorded outcome of this test.
OUT: No

IN: Same lookup for CN1C(=O)CN2C(Cl)(Cl)C2(c2ccccc2)c2cc(Cl)ccc21 (stereo not given) , please.
OUT: No

IN: Same lookup for O=c1[nH]c2c(c(=O)[nH]1)SC(c1ccccc1)C2 (stereo not given) , please.
OUT: No

IN: Same lookup for "O=C1/C=C(/c2ccc(O)cc2)[C@@H](O)Cc2ccc(O)cc2O1" , please.
OUT: No

IN: Same lookup for BrC(=C(c1ccc(OC2CCCCO2)cc1)c1ccc(OC2CCCCO2)cc1)c1ccccc1 (stereo not given) , please.
OUT: No

IN: Same lookup for CN1C(=O)C(O)CC1c1ccccc1C(F)(F)F (stereo not given) , please.
OUT: No

IN: Same lookup for "CN(C)C(=S)/N=c1\ss/c(=N\S(=O)(=O)c2ccccc2)n1-c1ccccc1" , please.
OUT: No

IN: Same lookup for COC1=CC(=O)c2c(cc(COP(=O)(OCC3OC(n4cc(F)c(=O)[nH]c4=O)CC3O)N(C)CCCCCl)n2C)C1=O (stereo not given) , please.
OUT: Yes

IN: Same lookup for "CN(C)C(=S)/N=c1\ssc(=S)n1Cc1ccccn1" , please.
OUT: No

====

- Tested on: OVCAR-4
- method-notes: NCI tumour cell line growth inhibition, 48 h
The source made the active and inactive calls. No stated cut-off is given here; in the data, active = GI50 up to about 1.1 µM and inactive = higher.
Use one of these outcomes when replying: active, inactive

Look over these answered cases.
compound=CCOC(=O)C(C)(c1cn(C)c2ccccc12)c1cn(C)c2ccccc12 measurement_target=OVCAR-4 assigned_category=inactive
compound=CCOC(=O)Cc1nc(/C(C#N)=C/c2ccco2)[nH]c(=O)c1C#N measurement_target=OVCAR-4 assigned_category=inactive
compound=FC(F)(F)c1cc(Cl)cnc1N/N=C(/c1ccccc1)c1ccccn1 measurement_target=OVCAR-4 assigned_category=inactive

IN: GET /call?item= "N#Cc1nc(-c2ccc(-c3nc(C#N)c(N)o3)cc2)oc1N" returns the recorded outcome of this test.
OUT: inactive

IN: Same lookup for "Cc1cc(N(CCC#N)CCC#N)ccc1/C=C(\NC(=O)/C=C/c1ccccc1)NC(=O)Nc1ccc(Cl)cc1" , please.
OUT: inactive

IN: Same lookup for CC(O)C(NC(=O)c1ccccc1)C(=O)N(Cc1ccccc1)Cc1ccccc1 (stereo not given) , please.
OUT: inactive

IN: Same lookup for "C=CC[C@H](O)[C@@](NC(=O)OCc1ccccc1)(Sc1ccc(C)cc1)C(F)(F)F" , please.
OUT: inactive

IN: Same lookup for "COc1cc(C(=O)N[C@H]2CCc3cc(OC)c(OC)c(OC)c3-c3ccc(SC)c(=O)cc32)cc(OC)c1OC" , please.
OUT: inactive

IN: Same lookup for "Nc1c(Cl)ncnc1NCC1(CO)CCC1" , please.
OUT: inactive

IN: Same lookup for "C=CCN1/C(=C2\SC(=S)N(c3ccc(C)cc3)C2=O)Sc2c1ncn(C)c2=O" , please.
OUT: inactive

IN: Same lookup for COC1=CC(=O)c2c(cc(COP(=O)(OCC3OC(n4cc(F)c(=O)[nH]c4=O)CC3O)N(C)CCCCCl)n2C)C1=O (stereo not given) , please.
OUT: inactive

IN: Same lookup for "COc1ccc(C(=O)N/N=C/c2c(C)n(C)n(-c3ccccc3)c2=O)cc1" , please.
OUT: inactive

IN: Same lookup for "N#CCCN(CCN(C(=O)Nc1ccccc1)c1ccccc1)C(=O)Nc1ccccc1" , please.
OUT: inactive

IN: Same lookup for "Cc1cc(C)c2c(n1)S(=O)(=O)N(CCCN1CCN(c3cccc(C(F)(F)F)c3)CC1)C(C(=O)c1ccccc1)=C2O" , please.
OUT: inactive

IN: Same lookup for "CCN(CCCl)CCCNc1c2ccccc2nc2ccc(OC)cc12" , please.
OUT: active

IN: Same lookup for "O=c1[nH]nc(Cc2ccc(Cl)cc2)n1/N=C\CC/C=N\n1c(Cc2ccc(Cl)cc2)n[nH]c1=O" , please.
OUT: inactive

IN: Same lookup for "COc1cc(-c2cc(=O)c3c(OC)c(OC)c(OC)cc3o2)c(OC)c(OC)c1OC" , please.
OUT: inactive

IN: Same lookup for "COc1ccc2oc3c(OC)c(OC)c(OC)cc3c(=O)c2c1" , please.
OUT: inactive

IN: Same lookup for Nc1nc(F)nc2c1ncn2C1OC(CO)C(O)C1O (stereo not given) , please.
OUT: inactive

IN: Same lookup for "Oc1c(NCn2nc(CCCCCCCCc3nn(CNc4ccc5ccccc5c4O)c(=S)o3)oc2=S)ccc2ccccc12" , please.
OUT: inactive

====

- System: NCI/ADR-RES
- method-notes: NCI tumour cell line growth inhibition, 48 h
The source made the active and inactive calls. Cut-off read from the data, not from the text of the source: active = GI50 up to about 1.1 µM and inactive = higher.
Use one of these outcomes when replying: active, inactive

compound="CC[N+]1(C)CCC(O)(c2ccc(Cl)c(Cl)c2)C(C(=O)c2ccc(Cl)c(Cl)c2)C1 (stereo not drawn)" assigned_category=inactive

IN: GET /call?item= "Cc1ccc(S(=O)(=O)Oc2nc3ccccc3nc2N(S(=O)(=O)c2ccc(C)cc2)S(=O)(=O)c2ccc(C)cc2)cc1" returns the recorded outcome of this test.
OUT: inactive

IN: Same lookup for "NC(=O)C1CCN(Cc2c(Cl)c(Cl)c(CN3CCC(C(N)=O)CC3)c(Cl)c2Cl)CC1" , please.
OUT: inactive

IN: Same lookup for "CCOC(=O)N1CCc2cc(OC)c(OC)c3c2c1cc1cc(OC)c(OC)cc13" , please.
OUT: active

IN: Same lookup for "O/N=N/c1ccc(Sc2ccc(/N=N/O)cn2)nc1" , please.
OUT: inactive

====

- System: SNB-75
- method-notes: NCI tumour cell line growth inhibition, 48 h
Calls of active or inactive are those of the source. Rule as the data show it: active = GI50 up to about 1.1 µM and inactive = higher.
Use one of these outcomes when replying: active, inactive

compound="CC(C(=O)NCNC(=O)c1ccccc1)C(=O)NCc1ccccc1 (stereo not drawn)" measurement_target=SNB-75 assigned_category=inactive
compound="CC(=O)OC12C(C)=C(C)C(=O)N1c1ccccc1N2C(C)=O (stereo not drawn)" measurement_target=SNB-75 assigned_category=inactive
compound=Cc1cc2c(=O)cc(-c3ccc(Cl)c(Cl)c3)oc2c(C(=O)O)c1C measurement_target=SNB-75 assigned_category=inactive
compound=COc1cc2c(c(O)c1C)C(=O)C(Cl)=CC2=O measurement_target=SNB-75 assigned_category=inactive

IN: GET /call?item= "O=C1c2cc3ncsc3cc2C(=O)c2c(O)ccc(O)c21" returns the recorded outcome of this test.
OUT: inactive

IN: Same lookup for "CCOC(=O)C(C)(c1cn(C)c2ccccc12)c1cn(C)c2ccccc12" , please.
OUT: inactive

IN: Same lookup for "C=CCN1CN(c2ccccc2)C2(CCN(CCCC3(c4ccc(F)cc4)OCCO3)CC2)C1=O" , please.
OUT: inactive

IN: Same lookup for "COc1ccc(NC(=O)CC(=O)NN)cc1" , please.
OUT: inactive

IN: Same lookup for "N#Cc1nc(-c2ccc(-c3nc(C#N)c(N)o3)cc2)oc1N" , please.
OUT: inactive

IN: Same lookup for "CC(C)(C)OC(=O)CN1CCNCCNCC1" , please.
OUT: inactive

IN: Same lookup for CC(=O)OC1CCC2C(=CCC3C2(C)C(=O)CC2(C)C(C4(C)OC(C(C)C)=CC4=O)C(O)CC32C)C1(C)C (stereo not drawn) , please.
OUT: inactive

IN: Same lookup for N[C@H]1C2C3CC4C5CC(C42)C1(c1ccccc1)C53 (stereo partly drawn) , please.
OUT: inactive

IN: Same lookup for CC(CCC[C@H](C)CO)[C@H]1[C@@H](O)C(O)C2[C@@H]3C[C@@H](O)C4(O)C[C@@H](O)CC[C@]4(C)C3CC[C@@]21C (stereo partly drawn) , please.
OUT: inactive

IN: Same lookup for "NC(=O)C1CCN(Cc2c(Cl)c(Cl)c(CN3CCC(C(N)=O)CC3)c(Cl)c2Cl)CC1" , please.
OUT: inactive

IN: Same lookup for O=C(CC1(O)C(=O)Nc2ccccc21)c1cccc(O)c1 (stereo not drawn) , please.
OUT: inactive

IN: Same lookup for "CCn1cc2c(=O)n3ncn(-c4ccc(Br)cc4)c3nc2n1" , please.
OUT: inactive
